# ASSAY EXPLANATION: Permeability across apical to basal side in human Caco-2 cells by LC-MS/MS analysis
# Format: ADME, cell-based
# EXPERIMENTAL CONDITIONS: read-out: permeability
QUANTITY NAME: Papp A→B (nm/s)
Express it in nm/s; write the number only.

// query Quick one: give measured Papp A→B for CCn1c(CNC(=O)c2nc(Cl)cnc2N)[n+](CC)c2ccc(OCC(=O)NCCOCP(C)(C)=O)cc21
// result 6

---

# System: M1 cell
# ASSAY EXPLANATION: Inhibition of ENaC-mediated water resorption in mouse M1 cells at 3 uM by radiometric dilution assay relative to control
# Assay type: cell-based
Entries and their measured inhibition follow.
Express it in %; write the number only.

[
  {
    "SMILES TEXT": "CCOP(=O)([O-])CCCOc1ccc2c(c1)[n+](CC)c(CNC(=O)c1nc(Cl)c(N)nc1N)n2CC1CCOCC1",
    "UNIT SYMBOL": "%",
    "inhibition": 81
  }
]

// query Quick one: give measured inhibition for CCn1c(CNC(=O)c2nc(Cl)cnc2N)[n+](CC)c2cc(C(=O)N3CCC(N)CC3)ccc21
// result 84

// query Quick one: give measured inhibition for CCn1c(CNC(=O)c2nc(Cl)cnc2N)[n+](CC)c2cc(C(=O)NCCCN)ccc21
// result 83

// query Quick one: give measured inhibition for CCn1c(CNC(=O)c2nc(Cl)c(N)nc2N)[n+](CCO)c2cc(OCC(=O)N3CCN(C(C)=O)CC3)ccc21
// result 92

// query Quick one: give measured inhibition for CCn1c(CNC(=O)c2nc(Cl)cnc2N)[n+](CC)c2ccc(C(=O)N(C)CCN(C)C)cc21
// result 81

// query Quick one: give measured inhibition for CCOP(=O)([O-])CCCOc1ccc2c(c1)[n+](CC)c(CNC(=O)c1nc(Cl)c(N)nc1N)n2CCCC#N
// result 83

// query Quick one: give measured inhibition for CCn1c(CNC(=O)c2nc(Cl)cnc2N)[n+](CCO)c2cc(OCC(=O)N3CCN(C(C)=O)CC3)ccc21
// result 76

// query Quick one: give measured inhibition for CCn1c(CNC(=O)c2nc(Cl)c(N)nc2N)[n+](CC)c2cc(OCCCP(=O)([O-])OCCOC)ccc21
// result 98

---

# ASSAY EXPLANATION: Permeability across basal to apical side in human Calu-3 cells at 0.1 to 300 uM measured upto 2 hrs by HPLC-MS/MS analysis
# Assay type: ADME, cell-based
# EXPERIMENTAL CONDITIONS: dose 0.1-300 µM, read-out: permeability
Entries and their measured Papp B→A at 2 h, up to 300 µM follow.
Express it in ×10⁻⁶ cm/s; write the number only.

Examples from the recorded data:
[
  {
    "SMILES TEXT": "CCn1c(CNC(=O)c2nc(Cl)cnc2N)[n+](CC)c2cc(OCC(=O)OC)ccc21",
    "QUANTITY NAME": "Papp B→A at 2 h, up to 300 µM",
    "MEASUREMENT": 0.25
  },
  {
    "SMILES TEXT": "CCOP(=O)([O-])CCCOc1ccc2c(c1)[n+](CC)c(CNC(=O)c1nc(Cl)c(N)nc1N)n2CCCC#N",
    "QUANTITY NAME": "Papp B→A at 2 h, up to 300 µM",
    "MEASUREMENT": 0.22
  },
  {
    "SMILES TEXT": "CCn1c(CNC(=O)c2nc(Cl)cnc2N)[n+](CC)c2cc(OCC(=O)O)ccc21",
    "QUANTITY NAME": "Papp B→A at 2 h, up to 300 µM",
    "MEASUREMENT": 0.22
  },
  {
    "SMILES TEXT": "CCn1c(CNC(=O)c2nc(Cl)c(N)nc2N)[n+](CCO)c2cc(OCC(=O)N3CCN(C(C)=O)CC3)ccc21",
    "QUANTITY NAME": "Papp B→A at 2 h, up to 300 µM",
    "MEASUREMENT": 0.31
  },
  {
    "SMILES TEXT": "CCn1c(CNC(=O)c2nc(Cl)cnc2N)[n+](CCO)c2cc(OCC(=O)N3CCN(C(C)=O)CC3)ccc21",
    "QUANTITY NAME": "Papp B→A at 2 h, up to 300 µM",
    "MEASUREMENT": 0.7
  },
  {
    "SMILES TEXT": "CCn1c(CNC(=O)c2nc(Cl)cnc2N)[n+](CC)c2ccc(C(=O)NCCCN)cc21",
    "QUANTITY NAME": "Papp B→A at 2 h, up to 300 µM",
    "MEASUREMENT": 0.22
  },
  {
    "SMILES TEXT": "CCn1c(CNC(=O)c2nc(Cl)cnc2N)[n+](CC)c2cc(C(=O)O)ccc21",
    "QUANTITY NAME": "Papp B→A at 2 h, up to 300 µM",
    "MEASUREMENT": 0.17
  }
]

// query Quick one: give measured Papp B→A at 2 h, up to 300 µM for CCn1c(CNC(=O)c2nc(Cl)c(N)nc2N)[n+](CC)c2cc(OCCCP(=O)([O-])OC[C@H]3CCCO3)ccc21
// result 0.06

Source: ChEMBL document CHEMBL5518182
